- Test system: SNB-75
- measurement notes: NCI tumour cell line growth inhibition, 48 h
Calls of active or inactive are those of the source. Rule as the data show it: active = GI50 up to about 1.1 µM and inactive = higher.
Outcome codes: active, inactive

INSERT INTO measurements (compound, group) VALUES
  ('O=C1NC(c2cccc(OCc3ccccc3)c2)Nc2ccccc21 (stereo not given)', 'active'),
  ('CCOC(=O)c1cc(-c2ccc(OC)cc2)c([N+](=O)[O-])[nH]1', 'inactive'),
  ('CCC1c2[nH]c3ccccc3c2C[C@H]2C(=O)NC(COC(C)(C)C)C(=O)N12 (stereo not given in full)', 'inactive'),
  ('O=C1N[C@@H](O)[C@@H]2ON=C(c3ccccc3)[C@H]12', 'inactive'),
  ('O=[N+]([O-])c1ccc2c(c1)C1=NN(c3ccccc3)C(c3ccccc3Br)C1CCC2 (stereo not given)', 'inactive');

* * *

- System: HCC 2998
- measurement notes: NCI tumour cell line growth inhibition, 48 h
The source made the active and inactive calls. No stated cut-off is given here; in the data, active = GI50 up to about 1.1 µM and inactive = higher.
Labels: t for active, f for inactive

INSERT INTO assay_data (molecule, group) VALUES
  ('CCCCCCCCCCCC(=O)OC[C@@H](C[As](=O)(O)O)OC(=O)CCCCCCCCCCC', 'f'),
  ('Cc1nc2ccccc2c(=O)n1/N=C(\N=N\c1cc(Cl)ccc1Cl)c1ccccc1', 'f'),
  ('C1CN1c1nc(N2CC2)nc(N2CC2)n1', 'f'),
  ('NC(=O)N1N=C2c3ccccc3OC[C@H]2[C@@H]1c1ccccc1', 'f'),
  ('O=CC12CCCN1CCC2', 'f'),
  ('OC(c1ccccc1)c1c(-c2ccccc2)oc(-c2ccccc2)c1C(O)c1ccccc1 (stereo not given)', 'f'),
  ('COc1cc(/C=c2/c3ccccc3n3c2cc(-c2ccccc2)[n+]3C)cc(OC)c1OC', 'f'),
  ('CCCCCCOc1ccc(C(=O)NOC)cc1', 'f'),
  ('CCOC(=O)c1sc2nc(SC)nc(Nc3ccc(OC)c(OC)c3)c2c1N', 'f'),
  ('CC(C)(C)OC(=O)CCCCCNC(=O)CCCCCNC(=O)CCC(CN(CC(=O)OCc1ccccc1)CC(=O)OCc1ccccc1)N(CC(=O)OCc1ccccc1)CC(=O)OCc1ccccc1 (stereo not given)', 'f'),
  ('COc1c2c(cc3oc(=O)ccc13)OC(C)(C)C=C2', 'f'),
  ('COC(=O)C1=C(C)N(NC(N)=O)C2(N)N(NC(N)=O)C(C)=C(C(=O)OC)C12C(=O)OC (stereo not given)', 'f'),
  ('COc1ccc2c(c1)C(=O)c1ccccc1C2', 'f'),
  ('CC(/C=N/N(C)C1=NCCCCN1)=N/N(C)C1=NCCCCN1', 'f'),
  ('Clc1cccc(Cl)c1/C=N/C12CC3CC(CC(C3)C1)C2', 'f'),
  ('CC(=O)O[C@H]1C(=O)[C@@]2(C)C(C(OC(=O)c3ccccc3)[C@]3(O)CC(OC(=O)[C@H](OC(=O)CCC(=O)O)C(NC(=O)c4ccccc4)c4ccccc4)C(C)=C1C3(C)C)C1(OC(C)=O)COC1C[C@@H]2O (stereo not given in full)', 't'),
  ('S=C(NCCCCCCNC(=S)Nc1c2ccccc2nc2ccccc12)Nc1c2ccccc2nc2ccccc12', 'f'),
  ('Sc1nn2c(COc3cccc(OCc4nnc5sc(S)nn45)c3)nnc2s1', 'f'),
  ('OCC1OC(c2n[nH]c3c(O)ncnc23)C(O)C1O (stereo not given)', 'f'),
  ('COC(=O)c1nc(Cl)nc(Cl)c1Cl', 'f');

* * *

- System: SF-539
- measurement notes: NCI tumour cell line growth inhibition, 48 h
Calls of active or inactive are those of the source. Cut-off read from the data, not from the text of the source: active = GI50 up to about 1.1 µM and inactive = higher.
Some molecules, each annotated with its measured GI50.
reported endpoint: GI50

INSERT INTO measurements (molecule, observed_result) VALUES
  ('CC(=O)OC1=CC2(OC(C)=O)CC(C)(C)C1C1C(=O)C=CC(=O)C12 (stereo unspecified)', '> 47.1 µM (inactive)'),
  ('COC(=O)C(CBr)CBr', '5.96 µM (inactive)'),
  ('C=C1C(=O)OC2CC3(CO3)C3C(O)C(O)CC3(C)CC12 (stereo unspecified)', '19.1 µM (inactive)'),
  ('O=C(CC(=O)c1cccc2ccccc12)C(=O)NC1C2CC3CC(C2)CC1C3 (stereo unspecified)', '> 100 µM (inactive)'),
  ('COc1c(O)cc2oc(-c3ccc(O)cc3)cc(=O)c2c1O [HISPIDULIN]', '27 µM (inactive)'),
  ('OC(c1ccccc1)c1c(-c2ccccc2)oc(-c2ccccc2)c1C(O)c1ccccc1 (stereo unspecified)', '16.7 µM (inactive)'),
  ('O=C(/C=C/c1ccc(Cl)c(Cl)c1)CCN1CCN(CCC(=O)/C=C/c2ccc(Cl)c(Cl)c2)CC1', '14.4 µM (inactive)'),
  ('COC(=O)C1CCCCCCCCCCC12SCCCS2 (stereo unspecified)', '25.3 µM (inactive)'),
  ('[N-]=[N+]=Nc1ncnc2c1sc(=S)n2-c1ccccc1', '> 100 µM (inactive)'),
  ('COC1=CC(=O)C2=C(C1=O)[C@H]1CC[C@]3(C)[C@@H](OC(C)=O)CC[C@H]3[C@@H]1CC2', '75.3 µM (inactive)'),
  ('O=[N+]([O-])/C(Cl)=C(\NCCO)C(Cl)=C(Cl)Cl', '> 100 µM (inactive)'),
  ('ClCCN1CCOC1=C1C=CC=C1', '> 100 µM (inactive)'),
  ('Cc1cc(C)nc(NS(=O)(=O)c2ccc(NC(=O)c3ccc4nc5ccccc5c(Nc5ccc(S(=O)(=O)Nc6nc(C)cc(C)n6)cc5)c4c3)cc2)n1', '88.3 µM (inactive)'),
  ('CC(=O)Nc1ccc(S(=O)(=O)/N=C2\C=CC(=O)c3ccccc32)cc1', '7.66 µM (inactive)'),
  ('CC1(C)C(C#N)=[N+]([O-])C(C)(C)N1O', '> 100 µM (inactive)'),
  ('Clc1cccc(-c2nnc(-c3nn(-c4ccccc4)c4nc5ccccc5nc34)o2)c1', '> 100 µM (inactive)'),
  ('Nc1ccc2nc3n(c(=O)c2c1)CCCCC3', '> 100 µM (inactive)'),
  ('O=c1cc(-c2cccnc2)[nH]c2cc3c(cc12)OCO3', '5.58 µM (inactive)'),
  ('O=C1c2ccccc2C(=O)N1C/C=N/NS(=O)(=O)c1cccc([N+](=O)[O-])c1', '> 100 µM (inactive)'),
  ('Cc1ccccc1NC(=O)C(=O)C(C1OC(=O)c2ccccc21)[N+](=O)[O-] (stereo unspecified)', '> 100 µM (inactive)'),
  ('C=CN1C(=O)[C@H](Oc2ccccc2)[C@@H]1c1ccccc1', '16.2 µM (inactive)');

* * *

- Tested on: HCC 2998
- measurement notes: NCI tumour cell line growth inhibition, 48 h
Activity calls are given as the source filed them. Cut-off read from the data, not from the text of the source: active = GI50 up to about 1.1 µM and inactive = higher.
Outcomes: active, inactive

INSERT INTO measurements (compound, group) VALUES
  ('CCOC(=O)C1(C(N)=O)C(=O)c2ccncc2C1=O (stereo unspecified)', 'inactive'),
  ('CC1C(=NO)C(C)C(c2ccccc2)N(N=O)C1c1ccccc1 (stereo unspecified)', 'inactive'),
  ('COc1c(O)cc2oc(-c3ccc(O)cc3)cc(=O)c2c1O', 'inactive'),
  ('N#CCCCCCOCCOCCOCCOCCOCCCCCC#N', 'inactive'),
  ('CNc1nc(=O)c(C#N)c(-c2ccc(C)cc2)s1', 'inactive'),
  ('COC1(C)CNCC(C)(C)NC(=O)C(C)(OC)CNCC(C)(C)NC1=O (stereo unspecified)', 'inactive'),
  ('C=C1C(=O)OC2CC(C)C3CC(O)OC(OCC)C3(C)CC12 (stereo unspecified)', 'inactive'),
  ('CNc1ncccc1Nc1cc(=O)n2c3cccnc3n(C)c2c1', 'inactive'),
  ('C=CC(=C)CCC(Br)C(C)(C)Br (stereo unspecified)', 'inactive'),
  ('COC(NC(=O)Nc1ccccc1C)(C(F)(F)F)C(F)(F)F', 'inactive'),
  ('c1ccc(COc2ccc(C[P+](c3ccccc3)(c3ccccc3)c3ccccc3)cc2)cc1', 'active');

* * *

- Test system: SNB-19
- measurement notes: NCI tumour cell line growth inhibition, 48 h
Active and inactive are the calls of the source. Rule as the data show it: active = GI50 up to about 1.1 µM and inactive = higher.
Measured GI50 accompanies every entry in the list below.
reported endpoint: GI50

INSERT INTO assay_data (molecule, reported_endpoint, observed_result) VALUES
  ('c1ccc(SC23C4C5C6C4C2C6C53)nc1 (centres undefined)', 'GI50', '> 100 µM (inactive)'),
  ('O=C(OCc1ccccc1)N1CCN(C(=O)OCc2ccccc2)CCN(C(=O)OCc2ccccc2)CCN(C(=O)OCc2ccccc2)CCN(C(=O)OCc2ccccc2)CC1', 'GI50', '> 100 µM (inactive)'),
  ('COC(=O)C1=C(C)N(NC(N)=O)C2(N)N(NC(N)=O)C(C)=C(C(=O)OC)C12C(=O)OC (centres undefined)', 'GI50', '> 100 µM (inactive)'),
  ('CCCCCN(CCCCC)C(=O)[C@@H](CCC(=O)OCc1ccccc1)NC(=O)c1cc2ccccc2[nH]1', 'GI50', '> 100 µM (inactive)'),
  ('COc1ccc2cc(C(=O)CCC(=O)O)ccc2c1', 'GI50', '> 100 µM (inactive)'),
  ('OC1/C(=C/c2ccccc2)CNC/C1=C\c1ccccc1 (centres undefined)', 'GI50', '> 100 µM (inactive)'),
  ('CN(C)c1ccc(/C=C(\NC(=O)c2ccccc2)C2=NC(CCC(=O)O)C(=O)O2)cc1 (centres undefined)', 'GI50', '33.2 µM (inactive)'),
  ('O=[N+]([O-])c1nccn1CC(O)c1ccc(F)cc1 (centres undefined)', 'GI50', '> 100 µM (inactive)'),
  ('[N-]=[N+]=CC(=O)COC(=O)c1ccccc1', 'GI50', '> 100 µM (inactive)'),
  ('COc1cc(/C=C/C(=O)OC2C(O)C3CC(OC(=O)c4cc(OC)c(OC)c(OC)c4)CC2N3C)cc(OC)c1OC (centres undefined)', 'GI50', '12.9 µM (inactive)'),
  ('O=C1c2ccccc2C(=O)c2nc(-c3ccccc3)c(-c3ccccc3)nc21', 'GI50', '24.9 µM (inactive)'),
  ('S=C(NCCCCCCNC(=S)Nc1c2ccccc2nc2ccccc12)Nc1c2ccccc2nc2ccccc12', 'GI50', '> 83 µM (inactive)'),
  ('COc1ccc2c(c1)CCc1c(-c3n[nH]c4c3CCc3cc(OC)ccc3-4)n[nH]c1-2', 'GI50', '76.9 µM (inactive)'),
  ('COc1ccc(C2=C(Cl)C(=O)N(c3ccc(OC)cc3OC)C(=O)C2(Cl)Cl)cc1', 'GI50', '56.6 µM (inactive)'),
  ('CN1CCN(c2n[nH]c(=O)c3c2nnn3Cc2ccccc2)CC1', 'GI50', '> 100 µM (inactive)'),
  ('CC(C)(O)[C@@H]1CCC(C)([C@H]2[C@@H](O)CC3(C)C4CC(OC5OC(CO)C(O)C(O)C5O)C5C(C)(C)[C@@H](OC6OCC(O)C(O)C6O)CC[C@@]56C[C@@]46CC[C@]23C)O1 (some centres undefined)', 'GI50', '> 100 µM (inactive)'),
  ('CN(C=O)/C=C/c1cc(O)ccc1O', 'GI50', '> 72.8 µM (inactive)'),
  ('C/C(=N/NC(=S)Nc1cccc(Cl)c1)c1cccc(/C(C)=N\NC(=S)Nc2cccc(Cl)c2)n1', 'GI50', '19.4 µM (inactive)'),
  ('Cc1c(CCCl)c(N=[N+]=[N-])n2c(nc3ccccc32)c1C#N', 'GI50', '2.77 µM (inactive)');
